- Test details: Stability in pH 7.4 buffer at 37 degC after 72 hrs
- Type: physicochemical
- Assay conditions: pH 7.4, 72 h

Compound | Stability
C[C@H](Cn1cnc2c(N)ncnc21)OC[PH](=O)O | Stable
C[C@H](Cn1cnc2c(N)ncnc21)OCP(=O)(O)O [TENOFOVIR ANHYDROUS] | Stable
BP(=O)(O)COCCn1cnc2c(N)ncnc21 | Stable
BP(=O)(O)CO[C@H](C)Cn1cnc2c(N)ncnc21 | Stable
Nc1ncnc2c1ncn2CCOCP(=O)(O)O | Stable
Nc1ncnc2c1ncn2CCOC[PH](=O)O | Stable

----------
- Test details: Stability in pH 1.2 buffer at 37 degC after 72 hrs
- Format: physicochemical
- Assay conditions: pH 1.2, 72 h

Compound | Stability
C[C@H](Cn1cnc2c(N)ncnc21)OCP(=O)(O)O [TENOFOVIR ANHYDROUS] | Stable
Nc1ncnc2c1ncn2CCOC[PH](=O)O | Stable
BP(=O)(O)COCCn1cnc2c(N)ncnc21 | Stable
Nc1ncnc2c1ncn2CCOCP(=O)(O)O | Stable
BP(=O)(O)CO[C@H](C)Cn1cnc2c(N)ncnc21 | Stable
C[C@H](Cn1cnc2c(N)ncnc21)OC[PH](=O)O | Stable

Ref: ChEMBL document CHEMBL1138863
